Quick reference for Control among some molecules
- study system: UniProt:P09470
- Sequence (P09470 whole entry): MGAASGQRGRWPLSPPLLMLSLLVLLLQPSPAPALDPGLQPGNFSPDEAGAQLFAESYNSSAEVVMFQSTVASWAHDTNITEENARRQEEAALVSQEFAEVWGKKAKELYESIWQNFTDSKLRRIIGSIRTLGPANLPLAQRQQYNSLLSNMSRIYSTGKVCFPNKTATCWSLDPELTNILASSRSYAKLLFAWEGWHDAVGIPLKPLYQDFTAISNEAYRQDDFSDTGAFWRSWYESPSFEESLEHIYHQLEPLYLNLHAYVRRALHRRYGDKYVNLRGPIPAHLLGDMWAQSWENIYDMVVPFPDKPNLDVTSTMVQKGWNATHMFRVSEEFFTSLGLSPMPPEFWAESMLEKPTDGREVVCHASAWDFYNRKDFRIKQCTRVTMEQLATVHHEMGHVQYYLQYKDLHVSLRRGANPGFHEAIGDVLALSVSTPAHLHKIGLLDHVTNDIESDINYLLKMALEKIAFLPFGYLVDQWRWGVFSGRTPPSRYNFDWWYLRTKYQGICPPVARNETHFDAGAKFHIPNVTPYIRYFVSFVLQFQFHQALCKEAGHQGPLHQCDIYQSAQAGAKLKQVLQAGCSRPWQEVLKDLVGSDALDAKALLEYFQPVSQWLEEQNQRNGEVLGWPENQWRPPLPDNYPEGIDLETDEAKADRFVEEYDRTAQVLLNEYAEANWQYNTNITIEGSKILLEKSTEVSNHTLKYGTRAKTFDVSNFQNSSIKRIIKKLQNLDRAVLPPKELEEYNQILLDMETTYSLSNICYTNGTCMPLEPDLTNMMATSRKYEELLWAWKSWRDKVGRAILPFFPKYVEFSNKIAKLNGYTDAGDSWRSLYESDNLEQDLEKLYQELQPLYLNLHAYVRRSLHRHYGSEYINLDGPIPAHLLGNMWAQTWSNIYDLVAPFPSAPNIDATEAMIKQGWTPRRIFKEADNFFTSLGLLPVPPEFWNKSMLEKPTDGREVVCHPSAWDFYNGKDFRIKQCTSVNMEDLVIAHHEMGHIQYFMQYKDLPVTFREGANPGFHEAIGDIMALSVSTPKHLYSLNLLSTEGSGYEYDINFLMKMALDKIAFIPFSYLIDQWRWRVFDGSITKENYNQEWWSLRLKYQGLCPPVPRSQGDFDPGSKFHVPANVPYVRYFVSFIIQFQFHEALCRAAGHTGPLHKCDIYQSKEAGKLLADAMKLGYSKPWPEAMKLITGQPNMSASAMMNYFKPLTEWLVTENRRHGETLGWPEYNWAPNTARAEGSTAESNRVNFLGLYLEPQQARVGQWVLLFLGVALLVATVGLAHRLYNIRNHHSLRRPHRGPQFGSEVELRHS
- test details: In vivo inhibition of lung ACE was observed at 120 min after oral administration of the compound
- Type: functional, organism-based
- Set-up: concentration or dose not given beside the values
A complete answer gives the number and then names the unit.

Example entries begin here.
INSERT INTO results (molecule, experimental_readout, result) VALUES
  ('CC(c1ccccc1)C(CSC(=O)C12CC3CC(CC(C3)C1)C2)C(=O)N[C@@H](C)C(=O)O (stereo not given in full)', 'Control', '36%'),
  ('CC(=O)SCC(C(=O)N[C@@H](C)C(=O)O)C(C)c1ccccc1 (stereo not given in full)', 'Control', '18%'),
  ('C[C@H](NC(=O)[C@@H](CSC(=O)C12CC3CC(CC(C3)C1)C2)[C@@H](C)c1ccccc1)C(=O)O', 'Control', '42%'),
  ('CC(=O)SCC(C(=O)N[C@@H](C)C(=O)OCc1ccccc1)C(C)c1ccccc1 (stereo not given in full)', 'Control', '21%');

Please turn your attention to the following entry.
stdin: Field: Control (UniProt:P09470). Entry: CC(c1ccccc1)C(CSC(=O)c1ccccc1)C(=O)N[C@@H](C)C(=O)O (stereo not given in full)
stdout: 44%
